Each item that follows carries a reported viability, T/C.
- Tested on: 648629-189-R-J1-PDC spheroids with HUVEC/MSC, viability;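 further: spheroids exposed to agents for seven days before reading; percent of vehicle control luminescence where 100% = DMSO treated spheroids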
- Assay: Anticancer human tumor 648629-189-R-J1-PDC patient-derived bladder carcinoma cell line growth inhibition [PI3K]
- Test Context: second compound 1 µM; first compound 0.316 µM; stronger effect = lower value

Consider the reported viability, T/C for these molecules:
[[record]]
molecule = "Cn1ncc(Cl)c1-c1cc(C(=O)NC(CN)Cc2cccc(F)c2)sc1Cl (stereo not given) + COc1c(OCCCN2CCOCC2)ccc2c3n(c(=NC(=O)c4cnc(N)nc4)nc12)CCN3"
readout_label = "viability, T/C"
result = "2.87%"

[[record]]
molecule = "CC1(C)CCC(Nc2ncc(C(F)(F)F)c(-c3c[nH]c4c(P(C)(C)=O)c(C#N)ccc34)n2)CN1 (stereo not given) + Cc1nc(NC(=O)N2CCCC2C(N)=O)sc1-c1ccnc(C(C)(C)C(F)(F)F)c1"
readout_label = "viability, T/C"
result = "26%"

[[record]]
molecule = "Cn1nccc1Nc1nccc(-c2ccn(C(CO)c3ccc(Cl)c(F)c3)c(=O)c2)n1 (stereo not given) + CC(Nc1ncnc2nc[nH]c12)c1cc2cccc(Cl)c2c(=O)n1-c1ccccc1"
readout_label = "viability, T/C"
result = "101%"

[[record]]
molecule = "CC1(C)CCC(Nc2ncc(C(F)(F)F)c(-c3c[nH]c4c(P(C)(C)=O)c(C#N)ccc34)n2)CN1 (stereo not given) + COc1c(OCCCN2CCOCC2)ccc2c3n(c(=NC(=O)c4cnc(N)nc4)nc12)CCN3"
readout_label = "viability, T/C"
result = "6.72%"

[[record]]
molecule = "CC1(C)CCC(CN2CCN(c3ccc(C(=O)NS(=O)(=O)c4ccc(NCC5CCOCC5)c([N+](=O)[O-])c4)c(Oc4cnc5[nH]ccc5c4)c3)CC2)=C(c2ccc(Cl)cc2)C1 + Cc1nc(NC(=O)N2CCCC2C(N)=O)sc1-c1ccnc(C(C)(C)C(F)(F)F)c1"
readout_label = "viability, T/C"
result = "74.3%"


According to the records, this molecule C[C@@H](NC(=O)c1ncnc(N)c1Cl)c1ncc(C(=O)Nc2cc(C(F)(F)F)c(Cl)cn2)s1 + COc1c(OCCCN2CCOCC2)ccc2c3n(c(=NC(=O)c4cnc(N)nc4)nc12)CCN3 displays viability, T/C of 3.53%

According to the records, this molecule CC1(C)CCC(CN2CCN(c3ccc(C(=O)NS(=O)(=O)c4ccc(NCC5CCOCC5)c([N+](=O)[O-])c4)c(Oc4cnc5[nH]ccc5c4)c3)CC2)=C(c2ccc(Cl)cc2)C1 + COc1c(OCCCN2CCOCC2)ccc2c3n(c(=NC(=O)c4cnc(N)nc4)nc12)CCN3 displays viability, T/C of 4.06%

According to the records, this molecule Cn1nccc1Nc1nccc(-c2ccn(C(CO)c3ccc(Cl)c(F)c3)c(=O)c2)n1 (stereo not given) + CC(Nc1ccc2c(c1)OCCn1cc(N3C(=O)OCC3C(F)F)nc1-2)C(N)=O displays viability, T/C of 70.3%

According to the records, this molecule CC(C)NCC(C(=O)N1CCN(c2ncnc3c2C(C)CC3O)CC1)c1ccc(Cl)cc1 (stereo not given) + CC(Nc1ccc2c(c1)OCCn1cc(N3C(=O)OCC3C(F)F)nc1-2)C(N)=O displays viability, T/C of 56.6%

According to the records, this molecule Cn1nccc1Nc1nccc(-c2ccn(C(CO)c3ccc(Cl)c(F)c3)c(=O)c2)n1 (stereo not given) + COc1c(OCCCN2CCOCC2)ccc2c3n(c(=NC(=O)c4cnc(N)nc4)nc12)CCN3 displays viability, T/C of 3.39%
